test system: MS2 coat protein; test: apparent KD of MS2 coat protein; designed switch direction (-1 OFF switch, 1 ON switch): -1; higher = weaker reporter binding; conditions: input ligand: FMN 200 uM
endpoint-label: apparent KD of MS2 coat protein (µM)

>>> observed_value("UCUGUUAUGCGAGGAUAUCGACCAUUCCUCUUAACAUGAGGAUCACCCAUGUGCUAAACCUACAACGAGAAGGCGCUCAUACUC [JR_ExcNG2_Sub068] (Eterna round: R96, puzzle: Exclusion NG 2)")
0.156
>>> observed_value("UGCGGGCUUUUGAGACCUCACAUGAGGAUCACCCAUGUGCUUGUCUUGUGGGUGGGUAGGUCGUUGGCUGACUCACG [Sensor-V1 #98] (Eterna round: R97, puzzle: Sensor, turn-off variant 1)")
0.0682
>>> observed_value("AUAAUGUCAGGAUAUACUAAUGAUGAAUGAUCAGACAUUAUGUAGAAGGGACAUGAGGAUCACCCAUGUAAUAU [EX4 #3] (Eterna round: R97, puzzle: Exclusion 4)")
0.0355
>>> observed_value("AGCUGUGGCCGAGGAUAUACAUGAGGAUCACCCAUGUUACAUAAUUCGACAUGAGAAUACGAACCGUAGAAGGCGGUCUCAGCA [Eli eng2 - 002] (Eterna round: R96, puzzle: Exclusion NG 2)")
0.127
